Test system: K-562 leukemia
Assay: NCI tumour cell line growth inhibition, 48 h
Can you tell me TGI for the items I'm about to list?

Lab note: measured TGI of CCCCCCCCCC(=O)OCC1(CO)C/C(=C/CC(C(C)C)C(C)C)C(=O)O1 (stereo not given) was 97 µM

Lab note: measured TGI of CSc1nc(=S)[nH]c2n[nH]c(C)c12 was > 100 µM

Lab note: measured TGI of COc1ccc(C2CC(=O)Nc3c2c(C)nn3-c2nc3ccccc3[nH]2)cc1 (stereo not given) was > 35.5 µM

Lab note: measured TGI of CC1(C)OC2C(CO)OC(n3ccc(=O)[nH]c3=O)C2O1 (stereo not given) was > 100 µM

Lab note: measured TGI of COc1cc2c(cc1OCCCCCOc1cc(-c3ccc(F)cc3)nc(C)n1)N=C[C@@H]1CCCN1C2=O was > 66.4 µM

Lab note: measured TGI of COc1cc(C)cc2c1OC(c1ccccc1)CC2=O (stereo not given) was > 100 µM

Lab note: measured TGI of Cc1c(CCN=P(c2ccccc2)(c2ccccc2)c2ccccc2)c(=O)n2c([nH]c3ccccc32)c1C#N was > 10 µM

Lab note: measured TGI of COc1ccc(NS(=O)CCc2ccccc2)cc1 (stereo not given) was > 100 µM

Lab note: measured TGI of O=C(/C=C/c1ccc(O)c(O)c1)NC(CO)C(=O)O (stereo not given) was > 100 µM

Lab note: measured TGI of C1=CCN(c2ccccc2)CC1 was > 100 µM

Lab note: measured TGI of CC1(C)CCSC(/C=C/c2ccccc2)=N1 was > 100 µM

Lab note: measured TGI of O=C(CNC(=O)OCc1ccccc1)NCCCCC(NC(=O)OCc1ccccc1)C(=O)O (stereo not given) was > 100 µM

Lab note: measured TGI of CN(CCO)CC(=O)CC(O)(C(F)(F)F)C(F)(F)F was > 100 µM

Lab note: measured TGI of COc1ccccc1NC(=O)CC(=O)n1nc(C)c(N=Nc2ccccc2F)c1C was > 31.6 µM

Lab note: measured TGI of COC(=O)/C=C/c1cc(OC)c2c(c1)C(C(=O)OC)C(c1ccc(OC)c(OC)c1)O2 (stereo not given) was > 100 µM

====

Tested on: KM20L2 colon
Experiment: NCI tumour cell line growth inhibition, 48 h
endpoint: TGI

Lab note: measured TGI of CCCOc1ccc(/C=C\c2cc(OC)c(OC)c(OC)c2)cc1 was > 100 µM

Lab note: measured TGI of N#CCCc1nc2ccc(Br)cc2c(=O)n1-c1ccc(O)c([N+](=O)[O-])c1 was > 100 µM

Lab note: measured TGI of N=C(c1ccccc1)N1CCCCC1 was > 100 µM

====

Can you tell me TGI for the items I'm about to list?
Test system: NCI-H226 lung
Test: NCI tumour cell line growth inhibition, 48 h

Lab note: measured TGI of CC[C@@]1(O)C(=O)NCc2c1cc1n(c2=O)Cc2cc3cc4c(cc3nc2-1)OCO4 was > 85.1 µM

Lab note: measured TGI of CCCCCCCCCC(=O)OCC1(CO)C/C(=C/CC(C(C)C)C(C)C)C(=O)O1 (stereo not drawn) was > 100 µM

Lab note: measured TGI of COc1ccc(NC2=C(Sc3nc(C)cc(C)n3)C(=O)N(Cc3ccccc3)C2=O)cc1Cl was > 160 µM

====

Tested on: OVCAR-3 ovarian
Test: NCI tumour cell line growth inhibition, 48 h
Can you tell me TGI for the items I'm about to list?

Lab note: measured TGI of CN(C)c1ccc(C(C#N)N2CCCN(C(C#N)c3ccc(N(C)C)cc3)C2c2ccc(N(C)C)cc2)cc1 (configuration not stated) was > 100 µM

Lab note: measured TGI of C[C@]12CC[C@H]3[C@@H](CCC4=CC(=O)CC[C@@H]43)[C@@H]1CC[C@@H]2OC1(O)C(=O)c2ccccc2C1=O was > 100 µM

Lab note: measured TGI of O=C1CCC(c2nc3ccccc3o2)C(=O)N1 (configuration not stated) was > 100 µM

Lab note: measured TGI of CCN(CC)c1ccc(/C=N/NC(=O)c2ccc(Nc3ccnc(C(F)(F)F)c3)cc2)c(O)c1 was > 70.1 µM

Lab note: measured TGI of Nc1ncc2c(n1)-c1ccccc1OC2NC1CC1 (configuration not stated) was > 100 µM

Lab note: measured TGI of CCN(CC)CCCCC1CCN(CC(=O)N2c3ccccc3NC(=O)c3ccccc32)CC1 was > 100 µM

Lab note: measured TGI of CC(=O)NNC=N/C(C#N)=C(\N)C#N was > 100 µM

Lab note: measured TGI of [N-]=[N+]=Nc1ncc(-c2ccc(C(F)(F)F)cc2)c(NC2CCCCCC2)n1 was > 10 µM

Lab note: measured TGI of CC(=O)/C=C1/c2ccccc2N(C(C)=O)C1O (configuration not stated) was > 100 µM

Lab note: measured TGI of COc1cc(C)cc2c1OC(c1ccccc1)CC2=O (configuration not stated) was > 100 µM

Lab note: measured TGI of O=S(=O)(CC1=NC2C=CC=CC2N=C1)NCc1ccccc1 (configuration not stated) was > 100 µM

Lab note: measured TGI of Cc1c(C(=O)/C=C/c2ccc(O)cc2)nnn1-c1ccnc2c(C(F)(F)F)cccc12 was > 100 µM

Lab note: measured TGI of COc1cc(C2c3cccc4cccc(c34)C3CCC(=O)N32)cc(O)c1O (configuration not stated) was > 50 µM

Lab note: measured TGI of CCOC(=O)/C(C#N)=C(O)/C(=C/c1ccccc1Cl)NC(=O)c1ccccc1 was > 100 µM

Lab note: measured TGI of O=C(Nc1ccccc1Cl)c1cnc2ccc(C3CCNCC3)cn12 was > 100 µM

Lab note: measured TGI of CN(C)c1ccc(C2CC(=O)CC(c3ccc(N(C)C)cc3)C23C(=O)NC(=O)NC3=O)cc1 (configuration not stated) was > 25 µM

Lab note: measured TGI of COc1ccc2c(c1)c(Cc1c(C)n(C)c3ccc(OC)cc13)c(C)n2C was > 100 µM

====

Tested on: CAKI-1 renal
Experiment: NCI tumour cell line growth inhibition, 48 h
endpoint: TGI (µM)
# number only, unit µM dropped from output

Lab note: measured TGI of CC1CCC2(OC1)OC1CC3C4CC=C5CC(OC6OC(CO)C(OC7OC(C)C(OC8OC(C)C(O)C(O)C8O)C(O)C7O)C(O)C6OC6OC(C)C(O)C(O)C6O)CCC5(C)C4CCC3(C)C1C2C (stereo not drawn) was 2.55

Lab note: measured TGI of COC(=O)C1=CN(CC2=CC(=O)C(C)=CC2=O)C=C(C(=O)OC)C1c1cccc(OC)c1OC was 29.7

Lab note: measured TGI of O=c1c2cc(I)ccc2nc(-c2cccs2)n1Nc1ccccc1 was 65.9

Lab note: measured TGI of CCOP(=O)(CS(C)=O)O[C@@H]1C[C@H](C)CC[C@H]1C(C)C (stereo partly drawn) was 12.8

Lab note: measured TGI of CC[C@@]1(O)C(=O)OCc2c1c(Cl)c1n(c2=O)Cc2cc3ccccc3nc2-1 was 16.4

Lab note: measured TGI of CCN(CC)c1ccc(/C=N/NC(=O)c2ccc(Nc3ccnc(C(F)(F)F)c3)cc2)c(O)c1 was 2.07

====

Test system: U251 CNS
Test: NCI tumour cell line growth inhibition, 48 h
endpoint: TGI

Lab note: measured TGI of CC(=O)c1c2c(cc3c1CC1(Cc4cc5c(cc4C1)CCC5)C3)CCC2 was > 100 µM

Lab note: measured TGI of COc1ccc(NC2=C(Sc3nc(C)cc(C)n3)C(=O)N(Cc3ccccc3)C2=O)cc1Cl was > 160 µM

Lab note: measured TGI of O=C1/C(=C/c2cccc([N+](=O)[O-])c2)COc2ccccc21 was 6.83 µM

====

Tested on: RXF 393 renal
Experiment: NCI tumour cell line growth inhibition, 48 h
Can you tell me TGI for the items I'm about to list?

Lab note: measured TGI of COc1cc2c(cc1OCCCCCOc1cc(-c3ccc(F)cc3)nc(C)n1)N=C[C@@H]1CCCN1C2=O was > 54.3 µM

Lab note: measured TGI of CC(=O)c1c2c(cc3c1CC1(Cc4cc5c(cc4C1)CCC5)C3)CCC2 was > 100 µM

Lab note: measured TGI of C1CSCC2(COC2)CS1 was > 100 µM

Lab note: measured TGI of [N-]=[N+]=Nc1ncc(-c2ccc(C(F)(F)F)cc2)c(NC2CCCCCC2)n1 was > 10 µM

Lab note: measured TGI of COc1ccc2[nH]c3c(cnn4cnnc34)c2c1 was > 100 µM

Lab note: measured TGI of CN(C)c1cccc2[nH]c(-c3[nH]ncc3Nc3ccnc(N)n3)nc12 was < 0.0168 µM

Lab note: measured TGI of CC(=O)OC1[C@H]2c3cc4c(cc3CN3CCC(C[C@@H]1OC(C)=O)C23)OCO4 (some centres not stated) was > 75 µM

Lab note: measured TGI of O=C(/C=C/c1ccc(O)c(O)c1)NC(CO)C(=O)O (configuration not stated) was > 100 µM

Lab note: measured TGI of CC(=O)Nc1ccc(-c2nnc(SCC(=O)Nc3ccccc3Cl)o2)cc1 was > 100 µM

Lab note: measured TGI of N#C/C(=C\c1ccc(Cl)cc1)c1nc2ccccc2c(=O)[nH]1 was > 100 µM

Lab note: measured TGI of O=[N+]([O-])c1cccc(-c2nc3sccn3c2-c2ccnc(NCCCNS(=O)(=O)c3ccc(F)cc3)n2)c1 was > 100 µM

Lab note: measured TGI of COc1cc2c(/C=C3/C(=O)Nc4ccccc43)c(Cl)n(Cc3ccccc3)c2cc1C was > 100 µM

Lab note: measured TGI of C/C(=N\NC(N)=S)c1ccc(/C(C)=N/NC(N)=S)cc1 was > 100 µM

Lab note: measured TGI of COc1ccc(NC(=O)C2=C(SC)C(C#N)C(=O)N=C2N)cc1 (configuration not stated) was > 100 µM

Lab note: measured TGI of COc1ccc(/C=C/C(=O)NCC(NC(=O)/C=C/c2ccc(OC)c(OC)c2)C(=O)O)cc1OC (configuration not stated) was > 100 µM

Lab note: measured TGI of O=C(O)CC(Cc1ccc2c(c1)OCO2)C(=O)O (configuration not stated) was > 100 µM

Lab note: measured TGI of C/C(=N\NC(N)=S)c1ccc2c(c1)OCO2 was > 100 µM
